# Test system: NCI-H23 lung
# experimental details: NCI tumour cell line growth inhibition, 48 h
Overview of reported TGI across a group of molecules:
quantity kind: TGI

>>> df
                                   molecule  measured_value
0        Cn1c(=O)cc(NCc2ccc(Cl)cc2)[nH]c1=O        > 100 µM
1  CCCCn1c(C)c(C(=O)OCC)s/c1=N/Nc1nc2ccccc2nc1-c1ccccc1        > 100 µM
2  CCOC(=O)c1sc2nc3sc(N=Nc4ccc(Cl)cc4)c(O)n3c(=S)c2c1C         42.4 µM
3       COc1ccc(C(=O)c2ccc(OC)c(OC)c2OC)cc1        > 100 µM
4  CN(C)c1ccc(/C=C(/NC(=O)c2ccccc2)c2nc3ccc(Cl)cc3[nH]2)cc1        > 100 µM
5  CCC(C)n1cc(C)c2c(C(=O)NCc3c(C)cc(C)[nH]c3=O)cc(Br)cc21 (centres undefined)        > 100 µM
6           CCc1n[nH]c(=O)n1/N=C/c1ccccc1Cl        > 100 µM
7  CN(C)CCNc1ccc2c(=O)n(CCN(C)C)c(=O)n3c4ccc([N+](=O)[O-])cc4c(=O)c1c23        0.777 µM
8  COc1cc2c(c(C)c1O)[C@H]1COc3ccccc3[C@H]1O2         64.2 µM

====

# Tested on: HOP-62 NSCLC
# experimental details: NCI tumour cell line growth inhibition, 48 h
Classify as follows. Reported TGI greater than or equal to 40 µM: met. Reported TGI below: not met.

>>> df
                                    compound  class_name
 0  CCCCc1c2c(nc3c1CCCC3O)/C(=C/c1ccccc1)CCC2 (stereo unspecified)         met
 1  COc1cc(C2c3cc4c(cc3OC(Nc3ccc(C(=O)O)cc3)C2C)OCO4)cc(OC)c1OC (stereo unspecified)         met
 2       NC(=NCCCOc1ccc(Cl)cc1)Nc1ccc(Cl)cc1     not met
 3           CCc1n[nH]c(=O)n1/N=C/c1ccccc1Cl         met
 4  CC(C)(C)N(Cc1ccc2c(c1)OCO2)C(=O)/C=C\S(=O)c1ccccc1 (stereo unspecified)     not met
 5  Cc1cc(C)nc(NS(=O)(=O)c2ccc(Nc3c4ccccc4nc4c(C(=O)NCCCN(CCO)CCO)cccc34)cc2)n1         met
 6  C1CCN(CCC2CCCCN2)CC1 (stereo unspecified)         met
 7  Cc1ccc(C2NC(=S)NC3=C2CCOc2c3ccc3ccccc23)cc1 (stereo unspecified)         met
 8  Cc1ccc(NC(=O)c2cccc([N+](=O)[O-])c2O)c([N+](=O)[O-])c1     not met
 9  CC(C)(C)c1ccc(-c2nc3ccc([N+](=O)[O-])cc3c(=O)o2)cc1         met
10  CCCCC(C)C1CCC2(C)C=CC(=O)C(C)=C2C1O (stereo unspecified)         met

====

# System: SF-268 CNS
# experimental details: NCI tumour cell line growth inhibition, 48 h
quantity kind: TGI (µM)

>>> print(df.to_string())
                                    molecule  readout_qualifier  measured_value
 0  O=C1NC(Cc2c[nH]c3ccccc23)C(=O)N2C(C3CCCCC3)c3[nH]c4ccccc4c3C[C@@H]12 (some centres not stated)                  =            49.3
 1  CC(C)(C)N(Cc1ccc2c(c1)OCO2)C(=O)/C=C\S(=O)c1ccccc1 (configuration not stated)                  =            5.78
 2  CC(C)(C)NN=C1C(C)(C)C(=NNC(C)(C)C)C1(C)C                  >             100
 3  N/N=C1\C(=O)N(C2CCCCC2)C(=O)C1C(=O)NC1CCCCC1 (configuration not stated)                  >             100
 4    ClC1=C(Cl)C(Cl)=C(Cl)C1=C/C=C/c1ccccc1                  =            1.51
 5  CC(=O)OCC1OC(n2c3c(c(-c4ccco4)c(C#N)c2=S)CCC3)C(OC(C)=O)C(OC(C)=O)C1OC(C)=O (configuration not stated)                  >             100
 6  CCOC(=O)c1sc2nc3sc(N=Nc4ccc(Cl)cc4)c(O)n3c(=S)c2c1C                  =              82
 7  COc1cc(/C=C/c2cc(/C=C/c3ccc(O)c(OC)c3)n(-c3c(C)cccc3C)c(=O)n2)ccc1O                  =            11.5
 8  O=P(Oc1ccccc1)(Oc1ccccc1)Oc1c[nH]c2ccccc12                  =            24.3
 9    CC(C)c1ccccc1NC(=O)C(=O)Cc1nc2ccccc2s1                  >             100
10            O=C1CCC[C@]2(CCC[C@@H](O)C2)N1                  >             100
11  CCC[CH2][Sn]([CH2]CCC)([O]C(=O)c1cc(F)cc(F)c1)[O]C(=O)c1cc(F)cc(F)c1                  =            2.34
12  O=C1C(Br)=CC2(C=C1Br)CCN=c1c2c(O)c2nc3ccccc3c3ccnc1c23                  =            1.91
13  C[C@H](Nc1c(O)c2c(c(O)c1Cl)C(=O)C=CC2=O)C(=O)Nc1ccc([N+](=O)[O-])cc1                  =            5.79
14            CCOC(=O)C(=O)Nc1c(F)cc(F)cc1Br                  >             100
15      CCCn1c(SCC)c2ccccc2c1-c1nc(F)nc(F)n1                  >             100
16      Cc1cc2cc3cc(C)c(N(C)C)cc3nc2cc1N(C)C                  =            15.1
17            CN1C2CC(=O)CC1[C@H](O)[C@@H]2O                  >             100
18          Cc1cc(N(CCC#N)S(C)(=O)=O)ccc1C=O                  >             100
19  Cc1cc2c(=O)n(-c3ccc(F)cc3)c(C)nc2c(C(=O)O)c1C                  >             100
20      CCOC(=O)c1c(C)c2c(n1C)CCc1cn[nH]c1-2                  >             100
21  CC1(C2(C)OC(=O)c3ccccc32)OC(=O)c2ccccc21 (configuration not stated)                  >             100
